We begin with a simple list: items and their reported EC50.
- experimentalTarget: T1, human GPC3 on cells (human, UniProt P51654 25-563)
- T1 construct: whole, on cells; One molecule is used for both CHO-hGPC3 transfectants and GPC3+ HepG2 cells; The assay field names the cell; also called CHO-hGPC3 (clone 2B10); CHO-human GPC3
- assaySummary: flow cytometry, CHO-human GPC3 cells
Write the answer as a number in nM, unit excluded.

Form: binder = 30B7 (antibody, V domains shown, Chimeric human IgG1) VH: QVQLQQSGAELVRPGASVRLSCKALGYTFTDYEMHWVKQTPVHGLEWIGAIHPGSGGTAYNQKFKGKATLTADKSSSTAYMELSSLTSEDSAVYYCTRYYSFAYWGQGTLVTVSA VL: DVLMTQTPLSLPVSLGDQASISCRSSQSLVHSNGNTYLHWYLQKPGQSPKLLIYKVSNRFSGVPDRFSGSGSGTDFTLKISRVEAEDLGVYFCSQSTHVPLTFGAGTKLEIK ; EC50 = 2.78

Form: binder = 5D6 (antibody, V domains shown, Chimeric IgG: murine variable regions on human IgG1 CH1-CH3 and an antibody light chain constant region) VH: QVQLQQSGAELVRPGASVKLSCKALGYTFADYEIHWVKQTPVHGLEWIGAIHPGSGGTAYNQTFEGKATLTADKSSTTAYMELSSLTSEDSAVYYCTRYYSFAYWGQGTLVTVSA VL: DVLMTQTPLSLPVSLGDQASISCRSSQSLVHSNGNTYLHWYLQKPGQSPKLLIYKVSNRFSGVPDRFSGSGSGTDFTLKISRVEAEDLGVYFCSQSTHVPLTFGAGTKLELK ; EC50 = 3.73

Form: binder = 34H1 (antibody, V domains shown, Chimeric human IgG1) VH: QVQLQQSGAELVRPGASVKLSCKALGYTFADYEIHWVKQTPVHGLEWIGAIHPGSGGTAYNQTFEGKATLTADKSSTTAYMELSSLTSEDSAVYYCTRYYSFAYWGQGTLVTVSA VL: DVVMTQTPLSLPVSLGDQASISCRSSQSLVHSNGNTYLHWYLQKPGQSPKLLIYKVSNRFSGVPDRFSGSGSGTDFTLKISRVEAEDLGVYFCSQSIHVPLTFGAGTKLELK ; EC50 = 2.1

Form: binder = 41H1 (antibody, V domains shown, Chimeric human IgG1) VH: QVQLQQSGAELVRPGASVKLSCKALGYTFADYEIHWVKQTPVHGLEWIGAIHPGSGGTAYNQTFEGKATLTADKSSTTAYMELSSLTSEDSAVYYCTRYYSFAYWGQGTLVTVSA VL: DVVMTQTPLSLPVSLGDQASISCRSSQSLVHSNGNTYLHWYLQKPGQSPKLLIYKVSNRFSGVPDRFSGSGSGTDFTLRISRVEAEDLGVYFCSQSTRVPLTFGAGTKLELK ; EC50 = 1.07

Form: binder = 42A1 (antibody, V domains shown, Chimeric human IgG1) VH: QVQLQQSGAELVRPGASVKLSCKALGYTFADYEIHWVKQTPVHGLEWIGAIHPGSGGTAYSQTFKGKATLTADKSSTTAYMELSSLTSEDSAVYYCTRYFSFAYWGQGTLVTVSA VL: DVVVTQTPLSLPVSLGDQASISCRSSQSLVHSNGNTYLHWYLQKPGQSPKLLIYKVSNRFSGVPDRFSGSGSGTDFTLKISRVEAEDLGVYFCSQSTHAPYTFGGGTRLEIK ; EC50 = 6.69
